system: 5-Lipoxygenase; assay: Inhibition of calcium ionophore-induced LTB4 formation in human polymorphonuclear leukocytes (PMNL); type: cell-based; details: 15 min preincubation, calcium ionophore 8.3 μM, 10 min at 37° C., LTB4 by enzyme-linked immunoassay or HPLC, read-out: IC50 (In Vitro Inhibitory Potencies Against 5-Lipoxygenase From Stimulated LTB4 Formation in Human Polymorphonuclear Leukocytes)
pIC50: −log10 of the molar value. Structures can show the parent of a compound that is named as a salt.
Could you label it T if measured pIC50 is 7 or higher, and F otherwise?

{"Molecule": "O=C(O)C=C(c1ccc(OCc2ccc3ccccc3n2)cc1)c1ccc(OCc2ccc3ccccc3n2)cc1 [Example 11]", "Category": "T"}
{"Molecule": "ON=C(c1ccc(OCc2ccc3ccccc3n2)cc1)c1ccc(OCc2ccc3ccccc3n2)cc1 [Example 2]", "Category": "T"}
{"Molecule": "O=C(O)CON=C(c1ccc(OCc2ccc3ccccc3n2)cc1)c1ccc(OCc2ccc3ccccc3n2)cc1 [Example 1]", "Category": "T"}
{"Molecule": "O=C(O)CON=C(c1ccc(OCc2ccc3ccc(Cl)cc3n2)cc1)c1ccc(OCc2ccc3ccc(Cl)cc3n2)cc1 [Example 6]", "Category": "F"}
{"Molecule": "O=C(O)CON=CC=C(c1ccc(OCc2ccc3ccccc3n2)cc1)c1ccc(OCc2ccc3ccccc3n2)cc1 [Example 12]", "Category": "T"}
{"Molecule": "O=C(O)CON=C(c1ccc(OCc2nc3ccccc3s2)cc1)c1ccc(OCc2nc3ccccc3s2)cc1 [Example 9, sodium salt]", "Category": "T"}

Just for reference, patent US5714488A is where these values come from.
